Data provenance is ChEMBL document CHEMBL1201862.

System: NCI/ADR-RES
EXPERIMENT: NCI tumour cell line growth inhibition, 48 h
Active and inactive are the calls of the source. Cut-off read from the data, not from the text of the source: active = GI50 up to about 1.1 µM and inactive = higher.
Assign a class; possible classes are yes (1) for active, no (0) for inactive

Hi team, can someone confirm the assay call for O=C1c2ccccc2-c2nc3ccncc3n21 ?
no (0)

Hello, I am checking results. What call was entered for COc1cc(C2CC(C)(N3CCCC3)Oc3cc4c(cc32)OCO4)cc(OC)c1OC (stereo not given) ?
yes (1)

What is the recorded call for this compound in the test? Cc1ccc(S(N)(C(=O)Nc2cccc3ccccc23)[N+](=O)[O-])cc1 (stereo not given)
no (0)

For this compound, state the assay outcome: COc1cc(C2c3cc4c(cc3OC(NNS(=O)(=O)c3ccc(C)cc3)C2C)OCO4)cc(OC)c1O (stereo not given)
no (0)

Check the results log: what was the call for COc1ccc(-c2c(C#N)c(O)n(C3OC(COC(C)=O)C(OC(C)=O)C(OC(C)=O)C3OC(C)=O)c(=S)c2C#N)cc1 (stereo not given) ?
no (0)

What was the test verdict on O=[N+]([O-])C(=C/c1ccccc1)/C(=C\c1ccccc1)[N+](=O)[O-] ?
no (0)

What is the recorded call for this compound in the test? NC1=C(N2CCOCC2)C(=O)NC2=N/C(=C\c3ccccc3)C(=O)N21
no (0)

// return assay outcome for C/C(=N\N=C(/S)N1CC2CCC(CC2)C1)c1cccc[n+]1[O-]
no (0)

So what was the verdict on OCC1OC(n2cnc3c2N=CNC[C@H]3O)C(Cl)C1O (stereo not given in full) in this test?
no (0)

Test call for this compound, please: CC(C1CCCC1=O)C1CCCC1=O (stereo not given)
no (0)

So what was the verdict on CC1(C)OC2C(CO)OC(n3cnc(N)nc3=O)C2O1 (stereo not given) in this test?
no (0)

Could you kindly confirm the outcome this assay logged for COc1cc(-c2coc3c(OC)c(OC4OC(CO)C(O)C(O)C4O)c(OC)cc3c2=O)cc(OC)c1C (stereo not given) ?
no (0)

I'd appreciate the recorded outcome for Cc1cccc2c1C/C(=C\c1cccc(C)c1C(=O)O)C2=O from this test.
no (0)

Please state the recorded outcome for this compound: O=c1[nH]c(N/N=C\C(O)C(O)C(O)CO)nc2ccccc12 (stereo not given)
no (0)

Assay result, entry Clc1ccc(-c2c3nc(c(-c4ccc(Cl)cc4)c4ccc([nH]4)c(-c4ccc(Cl)cc4)c4nc(c(-c5ccc(Cl)cc5)c5ccc2[nH]5)C=C4)C=C3)cc1 — outcome?
no (0)

What call does the record list for C=C1C(=O)[C@]23C[C@H]1C[C@@H](O)[C@H]2[C@]1(COC3=O)[C@@H](OC(C)=O)CC[C@@](C)(COC(C)=O)[C@H]1C=O [LOXOTHYRIN A] ?
no (0)

// param item: COc1ccc(C2Oc3ccc(Cl)cc3C=C2[N+](=O)[O-])cc1 (stereo not given) ; yields the recorded call
no (0)

// return assay outcome for COC(=O)C1(Cc2ccccc2)Cc2cc3c(cc2C1O)CCC3 (stereo not given)
no (0)

Identify the outcome logged in this assay for the compound shown: NS(=O)(=O)c1cc(C(=O)O)c(O)c2ccccc12
no (0)

What call does the record list for Nc1nc(=O)c2c([nH]1)NCC(CCNc1ccc(C(=O)O)cc1)N2 (stereo not given) ?
no (0)
